- tested-on: T1, MSLN·His protein (human, UniProt Q13421 296-580, limits assumed)
- T1 construct: Bought protein; also called human MSLN·His antigen; not shown: His tag
- assay-text: SPR (Biacore), antibody captured on protein A, MSLN·His as analyte
Entries annotated with measured kon
Please reply with the bare figure in M⁻¹ s⁻¹ and do not write the unit itself.

binder	property-measured	measured-result
M2339-z11-15 (antibody, IgG4, V domains shown, Humanized variant of M2339) VH: QLQLGASGGGLVQPGGSLRLSCALSGFTLRELDEFAIGWFRQAPGKEREGVSCISGTGGITHYADSVKGRFTISRDIAKTTLYLQMNSLNSEDTAVYYCAADERCTDRLIRPPTYWGQGTQVTVSS	kon	71000
M2339-z11-14 (antibody, IgG4, V domains shown, Humanized variant of M2339) VH: QLQLGASGGGLVQPGGSLRLSCALSGFTLRELDEFAIGWFRQAPGKEREGVSCISGTGGITHYADSVKGRFTISRDIAKNTVYLQMNSLNSEDTAVYYCAADERCTDRLIRPPTYWGQGTQVTVSS	kon	44400
M2339-z11-4 (antibody, IgG4, V domains shown, Humanized variant of M2339) VH: EVQLGASGGGLVQPGGSLRLSCALSGFTLRELDEFAIGWFRQAPGKEREGVSCISGTGGITHYADSVKGRFTISRDNSKTTVYLQMNSLRAEDTAVYYCAADERCTDRLIRPPTYWGQGTQVTVSS	kon	80000
M2339-z11-10 (antibody, IgG4, V domains shown, Humanized variant of M2339) VH: QLQLVESGGGLVQPGGSLRLSCALSGFTLRELDEFAIGWFRQAPGKEREGVSCISGTGGITHYADSVKGRFTISRDIAKTTVYLQMNSLNSEDTAVYYCAADERCTDRLIRPPTYWGQGTQVTVSS	kon	41000

Record M2339-z11-11 (antibody, IgG4, V domains shown, Humanized variant of M2339) VH: QLQLGASGGGLVQPGGSLRLSCAASGFTLRELDEFAIGWFRQAPGKEREGVSCISGTGGITHYADSVKGRFTISRDIAKTTVYLQMNSLNSEDTAVYYCAADERCTDRLIRPPTYWGQGTQVTVSS , field kon: 43000
